# protocol description: NCI Yeast Anticancer Drug Screen. Data for the bub3 strain (AID 167)
# condition context: S. cerevisiae bub3 mutant strain, at 50.0 µM
The panel holds about 79,000 compounds, 15% with a hit somewhere; the sample as a whole holds those more often. The source made the active and inactive calls. Cut-off read from the data, not from the text of the source: active = growth inhibition above about 70%; inactive = the rest.
Give one outcome, nothing more. List: active, inactive

CCCCNC(=O)/N=C/c1c(O)c2ccccc2oc1=O ... inactive
COC12OCCN(C)C1=CC(=O)C1N=NCC12 (stereo not drawn) ... inactive
O=C(Nc1cccc(F)c1)Oc1ccc(OCc2ccccc2)cc1 ... inactive

Problem: Test call, this compound: O=C(NCCN1CCCC1)Nc1ccccc1
Solution: inactive

Problem: Test call, this compound: CC(C)[C@@H]1CC[C@@H](C)C[C@H]1OC(=O)c1c2n(c3ccccc13)C[C@H]1OC(C)(C)O[C@@H]21
Solution: inactive

Problem: Test call, this compound: O=c1oc2nc(-c3ccccc3)[nH]c(=O)c2c2c1CCCC2
Solution: inactive

Problem: Test call, this compound: CCCC1(C)COC(/C=C/c2ccccc2)OC1 (stereo not drawn)
Solution: inactive

Problem: Test call, this compound: COc1ccc(N2C(=O)C3C=CC(n4[nH]c(=O)n(Cc5ccccc5)c4=O)CC3C2=O)cc1 (stereo not drawn)
Solution: inactive

----------
Each item that follows carries a reported growth inhibition.
# protocol description: NCI Yeast Anticancer Drug Screen. Data for the bub3 strain (AID 167)
# condition context: S. cerevisiae bub3 mutant strain, at 50.0 µM, hits give high values
About 79,000 compounds went through this panel and 15% of them were active in at least one assay; those are over-represented in the sample as a whole.
The response must be a number in % with no trailing unit.

CC1(C)CC(C#N)CC(C)(C)N1O ... -4.8
Cc1ccc(C)c(NC(=O)Nc2cccc(Cl)c2)c1 ... 9.4
CN(C)CCC1(C#N)CCCCC1 ... 12.4

Problem: Dear colleague, I am looking for the recorded growth inhibition of the following compound: CCOc1c(OC)cc(-c2nnc(SCCN(CC)CC)o2)cc1OC
Solution: 0.15

Problem: Dear colleague, I am looking for the recorded growth inhibition of the following compound: CC(C(=O)O)N(C)C(=O)c1cnc2ccccc2n1 (configuration not stated)
Solution: 18.6

Problem: Dear colleague, I am looking for the recorded growth inhibition of the following compound: CCOC(O)(NC(=O)C(C(F)(F)F)C(F)(F)F)C(F)(F)F (configuration not stated)
Solution: -12.4

Problem: Dear colleague, I am looking for the recorded growth inhibition of the following compound: CCOc1c(N=Nc2ccccc2C)c(C)nn1C(N)=S
Solution: 21.1

----------
# protocol description: NCI Yeast Anticancer Drug Screen. Data for the mec2-1 strain (AID 157)
# condition context: S. cerevisiae mec2-1 strain, at 50.0 µM, hits give high values
This is part of a sample that, as a whole, favours compounds with a hit. Of some 79,000 tested, about 15% had one in any assay.
Lab note: anything with growth inhibition at or over 10% counts as true; the rest go in false.

Problem: # check: growth inhibition of N#C/C(N)=C(\C#N)N=CNc1ccc(N)cc1 is greater than or equal to 10%
Solution: false

Problem: # check: growth inhibition of OC(c1cccnc1)C(CCc1ccccn1)c1ccccn1 (stereo not given) is greater than or equal to 10%
Solution: true

Problem: # check: growth inhibition of CCC(CC)C(=O)NC(=O)NC(N)=O is greater than or equal to 10%
Solution: false

Problem: # check: growth inhibition of O=C1OC(c2cccc3ccc(Br)cc23)c2ccccc21 (stereo not given) is greater than or equal to 10%
Solution: false

Problem: # check: growth inhibition of Cc1c(C)c(Br)c(C)c(C)c1Br is greater than or equal to 10%
Solution: false

Problem: # check: growth inhibition of O=C1NC(=O)C(=Cc2cc3c(cc2Br)OCO3)C(=O)N1 is greater than or equal to 10%
Solution: true

Problem: # check: growth inhibition of CCCCCCCCCCCCc1c2ccccc2cc2ccccc12 is greater than or equal to 10%
Solution: false

Problem: # check: growth inhibition of COC1=C(OC)CCC(/C(C#N)=C/c2ccc(OC)c(OC)c2)=C1 is greater than or equal to 10%
Solution: false

Problem: # check: growth inhibition of COc1ccc(-c2nc(-c3cc4ccccc4oc3=O)cs2)cc1 is greater than or equal to 10%
Solution: true

Problem: # check: growth inhibition of O=C(N/C=C\NC(=O)Nc1cccc(Cl)c1)Nc1cccc(Cl)c1 is greater than or equal to 10%
Solution: true

Problem: # check: growth inhibition of Cc1nn(CCO)c(N)c1C(N)=O is greater than or equal to 10%
Solution: false

Problem: # check: growth inhibition of CCOC(=O)c1ccc(NC=O)cc1 is greater than or equal to 10%
Solution: false

Problem: # check: growth inhibition of CC(C)CC(CC(C)C)=NNC(N)=O is greater than or equal to 10%
Solution: true

Problem: # check: growth inhibition of CSc1nc(C)cc(Nc2ccc(O)c(CN3CCOCC3)c2)n1 is greater than or equal to 10%
Solution: false

Problem: # check: growth inhibition of COC(=O)c1nc2c(N)nc(-c3ccccc3)nc2nc1N is greater than or equal to 10%
Solution: false

Problem: # check: growth inhibition of COc1c2cc3c(cc2nc2occc12)OCO3 is greater than or equal to 10%
Solution: false

Problem: # check: growth inhibition of COc1ccccc1C(=O)N(C)c1ccc(Cl)c(C(=O)OC(C)C)c1 is greater than or equal to 10%
Solution: true
